molecular target: pEGFR (Tyr1068) in PC-9 cells (Ex19Del) (Homo sapiens (Human), UniProt P00533, DEL746-750); assay: PC-9 pEGFR AlphaLISA assay; conditions: 4 hours incubation, p-EGFR (Tyr1068) AlphaLISA, read-out: Ext pEGFR_PC-9 Ex19Del IC50
Sequence (P00533 other isoform, or with tags, fused parts or gaps del 746-750): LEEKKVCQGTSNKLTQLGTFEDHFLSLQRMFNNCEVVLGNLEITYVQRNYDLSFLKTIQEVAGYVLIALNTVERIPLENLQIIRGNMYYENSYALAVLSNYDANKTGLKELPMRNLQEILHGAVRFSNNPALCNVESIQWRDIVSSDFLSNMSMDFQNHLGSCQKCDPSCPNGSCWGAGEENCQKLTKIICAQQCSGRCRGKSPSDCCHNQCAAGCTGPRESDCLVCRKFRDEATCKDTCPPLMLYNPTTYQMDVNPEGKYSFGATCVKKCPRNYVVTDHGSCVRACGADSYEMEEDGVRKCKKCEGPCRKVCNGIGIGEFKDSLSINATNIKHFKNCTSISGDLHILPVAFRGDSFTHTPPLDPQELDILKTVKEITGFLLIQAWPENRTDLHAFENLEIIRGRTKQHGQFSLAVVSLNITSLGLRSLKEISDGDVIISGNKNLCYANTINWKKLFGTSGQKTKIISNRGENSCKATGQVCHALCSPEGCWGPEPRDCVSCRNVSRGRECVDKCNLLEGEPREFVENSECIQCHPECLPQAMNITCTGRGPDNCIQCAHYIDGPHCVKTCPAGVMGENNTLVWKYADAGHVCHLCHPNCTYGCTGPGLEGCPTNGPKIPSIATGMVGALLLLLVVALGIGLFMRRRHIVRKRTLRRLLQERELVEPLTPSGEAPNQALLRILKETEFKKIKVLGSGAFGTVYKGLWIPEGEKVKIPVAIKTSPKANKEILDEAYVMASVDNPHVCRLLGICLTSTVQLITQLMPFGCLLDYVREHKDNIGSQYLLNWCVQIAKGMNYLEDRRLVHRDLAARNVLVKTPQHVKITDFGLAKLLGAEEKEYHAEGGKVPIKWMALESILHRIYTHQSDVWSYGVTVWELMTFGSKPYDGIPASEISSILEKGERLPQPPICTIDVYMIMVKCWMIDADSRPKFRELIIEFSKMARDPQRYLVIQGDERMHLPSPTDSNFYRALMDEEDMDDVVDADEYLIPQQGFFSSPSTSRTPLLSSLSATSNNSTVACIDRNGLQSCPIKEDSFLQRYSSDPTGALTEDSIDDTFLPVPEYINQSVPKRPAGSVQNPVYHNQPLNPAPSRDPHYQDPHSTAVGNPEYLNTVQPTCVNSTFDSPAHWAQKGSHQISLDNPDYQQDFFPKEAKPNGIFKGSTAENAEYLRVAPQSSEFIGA
pIC50: −log10 of the molar value.
measuredQuantity: pIC50

[a] COc1cc2ncnc(-c3cn(C)nc3-c3ccccc3)c2nc1NC(=O)[C@]12CN(C)C[C@H]1C2(F)F (single isomer, unassigned) [Example 416]
[b] COc1cc2ncnc(-c3cn(C)nc3-c3ccccc3)c2cc1NC(=O)C(C)F (stereo not drawn) [Example 221]
Problem: Among a and b , whose measured pIC50 is the smaller figure? Mark your answer with the label of the selected entry.
Result: b
(b: 8.64, a: 9.10)
